- measured.target: Nuclear receptor coactivator 2 (Homo sapiens) (UniProt Q15596)
- Sequence (Q15596 whole entry, looked up): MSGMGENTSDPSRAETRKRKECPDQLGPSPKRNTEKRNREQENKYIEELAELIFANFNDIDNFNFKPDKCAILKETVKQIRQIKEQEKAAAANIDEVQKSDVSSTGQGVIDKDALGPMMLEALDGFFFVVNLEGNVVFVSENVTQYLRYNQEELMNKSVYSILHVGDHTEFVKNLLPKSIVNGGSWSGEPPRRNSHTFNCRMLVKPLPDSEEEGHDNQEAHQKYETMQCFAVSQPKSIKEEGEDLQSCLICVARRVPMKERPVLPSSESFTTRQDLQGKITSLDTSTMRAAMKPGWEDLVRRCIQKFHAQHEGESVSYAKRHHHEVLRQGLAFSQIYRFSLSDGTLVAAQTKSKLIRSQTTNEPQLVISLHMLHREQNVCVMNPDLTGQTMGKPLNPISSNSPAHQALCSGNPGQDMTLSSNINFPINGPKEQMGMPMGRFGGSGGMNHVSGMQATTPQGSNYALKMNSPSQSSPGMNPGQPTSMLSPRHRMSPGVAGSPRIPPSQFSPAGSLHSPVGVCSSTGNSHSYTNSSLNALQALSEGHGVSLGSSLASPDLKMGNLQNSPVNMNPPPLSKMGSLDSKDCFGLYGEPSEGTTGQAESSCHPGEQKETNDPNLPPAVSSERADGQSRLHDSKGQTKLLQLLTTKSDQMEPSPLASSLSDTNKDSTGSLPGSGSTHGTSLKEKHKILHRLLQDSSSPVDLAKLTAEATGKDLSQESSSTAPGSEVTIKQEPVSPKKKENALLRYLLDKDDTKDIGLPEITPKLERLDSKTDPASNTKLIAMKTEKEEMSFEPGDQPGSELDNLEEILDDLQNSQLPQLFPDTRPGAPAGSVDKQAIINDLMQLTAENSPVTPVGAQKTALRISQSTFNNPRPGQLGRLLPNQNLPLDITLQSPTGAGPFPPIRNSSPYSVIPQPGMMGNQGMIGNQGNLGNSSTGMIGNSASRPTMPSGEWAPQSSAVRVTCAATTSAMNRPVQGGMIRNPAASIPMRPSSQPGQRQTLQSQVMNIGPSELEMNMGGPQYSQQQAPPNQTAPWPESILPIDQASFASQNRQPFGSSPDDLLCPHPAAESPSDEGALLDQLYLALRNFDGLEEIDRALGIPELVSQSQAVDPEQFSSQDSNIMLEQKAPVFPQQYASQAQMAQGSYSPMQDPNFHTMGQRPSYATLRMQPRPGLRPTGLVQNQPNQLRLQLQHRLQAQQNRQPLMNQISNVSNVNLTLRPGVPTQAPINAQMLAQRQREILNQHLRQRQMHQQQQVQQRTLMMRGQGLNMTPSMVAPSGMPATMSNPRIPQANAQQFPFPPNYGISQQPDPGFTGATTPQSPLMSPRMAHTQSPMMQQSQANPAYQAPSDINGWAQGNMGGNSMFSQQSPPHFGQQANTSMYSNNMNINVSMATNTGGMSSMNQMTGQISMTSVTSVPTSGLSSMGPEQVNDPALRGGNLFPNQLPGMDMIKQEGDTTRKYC
- assay.name: SRC2 coactivator transcriptional activity inhibitors, confirmation, cell-based, luminescence, HEK293, triplicate (AID 652008)
- condition.set: HEK293 GAL4-SRC2 luciferase reporter, at 8.9 µM, hits give high values
Lab note: compare inhibition against 30%. Equal or greater, write condition met. Smaller, write condition not met.

INSERT INTO assay_data (query_smiles, assigned_class) VALUES
  ('O=C(COC(=O)c1cccc(F)c1)Nc1cccc(S(=O)(=O)N2CCCCC2)c1', 'condition not met'),
  ('CCN(CC)S(=O)(=O)c1cccc(C(=O)N/N=C(\C)c2ccc(O)cc2O)c1', 'condition met'),
  ('Cc1ccc(C(=O)Nc2nc3ccccc3[nH]2)cc1', 'condition met');

Query string: Identify whether the reported inhibition of the following compound is 30% or greater: `CCCCn1c(CCC)nc([N+](=O)[O-])c1Sc1ccc(Cl)cn1`
Result string: condition not met
